# experiment notes: Cytotoxicity against M19 tumor cell line
# Format: functional
# experimental parameters: Homo sapiens; read-out: ID50 (the source's name)
Here the recorded IC50 is given for each entry.
parameter: IC50 (µg/mL)

molecule	parameter	readout value
COc1cccc2c1C(=O)c1c(O)c3c(c(O)c1C2=O)C[C@@](O)(C(=O)CO)C[C@@H]3O[C@H]1C[C@H](N)[C@H](O)[C@H](C)O1 [DOXORUBICIN]	IC50	0.016
COc1cccc2c1C(=O)c1c(O)c3c(c(O)c1C2=O)C[C@@](O)(C(C)=O)C[C@@H]3OC1CC(NC(=O)OCc2ccc(NC(=O)[C@H](CCCCN)NC(=O)[C@H](Cc3ccccc3)NC(=O)[C@@H](C)N)cc2)C(O)C(C)O1.Cl.Cl (some centres undefined)	IC50	1.58
COc1cccc2c1C(=O)c1c(O)c3c(c(O)c1C2=O)C[C@@](O)(C(=O)CO)C[C@@H]3OC1CC(NC(=O)OCc2ccc(NC(=O)[C@H](CCCCN)NC(=O)[C@H](Cc3ccccc3)NC(=O)[C@@H](C)N)cc2)C(O)C(C)O1.Cl.Cl (some centres undefined)	IC50	0.437
COc1cccc2c1C(=O)c1c(O)c3c(c(O)c1C2=O)C[C@@](O)(C(C)=O)C[C@@H]3O[C@H]1C[C@H](N)[C@H](O)[C@H](C)O1 [DAUNORUBICIN]	IC50	0.309

---

Here the recorded IC50 is given for each entry.
# System: EVSA-T
# experiment notes: Cytotoxicity against EVSA-T tumor cell line
# Assay type: functional
# experimental parameters: Homo sapiens, read-out: ID50 (the source's name)

compound	experimental target	IC50
COc1cccc2c1C(=O)c1c(O)c3c(c(O)c1C2=O)C[C@@](O)(C(=O)CO)C[C@@H]3OC1CC(NC(=O)OCc2ccc(NC(=O)[C@H](CCCCN)NC(=O)[C@H](Cc3ccccc3)NC(=O)[C@@H](C)N)cc2)C(O)C(C)O1.Cl.Cl (some centres undefined)	EVSA-T	0.141 µg/mL
COc1cccc2c1C(=O)c1c(O)c3c(c(O)c1C2=O)C[C@@](O)(C(=O)CO)C[C@@H]3O[C@H]1C[C@H](N)[C@H](O)[C@H](C)O1	EVSA-T	0.008 µg/mL
COc1cccc2c1C(=O)c1c(O)c3c(c(O)c1C2=O)C[C@@](O)(C(C)=O)C[C@@H]3O[C@H]1C[C@H](N)[C@H](O)[C@H](C)O1	EVSA-T	0.048 µg/mL
COc1cccc2c1C(=O)c1c(O)c3c(c(O)c1C2=O)C[C@@](O)(C(C)=O)C[C@@H]3OC1CC(NC(=O)OCc2ccc(NC(=O)[C@H](CCCCN)NC(=O)[C@H](Cc3ccccc3)NC(=O)[C@@H](C)N)cc2)C(O)C(C)O1.Cl.Cl (some centres undefined)	EVSA-T	1.2 µg/mL
